Conditions: in methanol, 313.15 K
MEASURED_QUANTITY: solubility (mole fraction)

| SMI | ENDPOINT_RESULT |
| --- | --- |
| CC(=O)N[C@@H](CC(C)C)C(=O)O | 0.066 |

* * *

Conditions: in n-butanol, 313.15 K

| SMI | solubility (mole fraction) |
| --- | --- |
| CC(=O)N[C@@H](CC(C)C)C(=O)O | 0.0379 |

* * *

Conditions: in sec-butanol, 288.15 K
MEASURED_QUANTITY: solubility (mole fraction)

| SMI | ENDPOINT_RESULT |
| --- | --- |
| CC(=O)N[C@@H](CC(C)C)C(=O)O | 0.0207 |
